tested on: SK-MEL-2; experiment: NCI tumour cell line growth inhibition, 48 h
Activity calls are given as the source filed them. Rule as the data show it: active = GI50 up to about 1.1 µM and inactive = higher.
measured_property: GI50

{"columns": ["molecule", "target_system", "measured_property", "measured_value"],
 "data": [
  ["c1cncc(O[Si](Oc2cccnc2)(Oc2cccnc2)Oc2cccnc2)c1", "SK-MEL-2", "GI50", "> 100 µM (inactive)"],
  ["O=C(CC1(O)C(=O)Nc2c(Cl)cc(Cl)cc21)c1ccc([N+](=O)[O-])cc1 (centres undefined)", "SK-MEL-2", "GI50", "> 56.4 µM (inactive)"],
  ["O=C1C(Cl)C2(CC(/C=C/c3ccccc3)=NN2c2cccc(S(=O)(=O)O)c2)N1c1nc2ccccc2s1 (centres undefined)", "SK-MEL-2", "GI50", "17.3 µM (inactive)"],
  ["CN(C)CCCCC1CCN(CC(=O)N2c3ccccc3NC(=O)c3ccccc32)CC1", "SK-MEL-2", "GI50", "> 100 µM (inactive)"],
  ["CC(=O)c1cc2c(Br)cccc2oc1=O", "SK-MEL-2", "GI50", "> 100 µM (inactive)"],
  ["CC1(C)CCC[C@]2(C)[C@@H]1CC[C@@]13O[C@@H]1C1=C(CO)C(=O)O[C@]14O[C@@H]4[C@@H]23", "SK-MEL-2", "GI50", "13.9 µM (inactive)"],
  ["C=C(C)[C@@]1(O[Si](C)(C)C)CCCC[C@@H]1CC(Sc1ccccc1)Sc1ccccc1", "SK-MEL-2", "GI50", "15 µM (inactive)"],
  ["COc1cc(/C=C2\\C[C@H]3[C@@H]4CC=C5C[C@@H](N6CCCC6)CC[C@]5(C)[C@H]4CC[C@]3(C)[C@H]2O)cc(OC)c1OC", "SK-MEL-2", "GI50", "19.5 µM (inactive)"],
  ["O=c1[nH]c2ccc(C(F)(F)F)cc2nc1Cc1ccccc1", "SK-MEL-2", "GI50", "24.7 µM (inactive)"],
  ["CN(C)CCC(/C=C/c1ccccc1)=N\\Nc1ccc(Cl)cc1", "SK-MEL-2", "GI50", "2 µM (inactive)"],
  ["O=C(c1ccccc1)c1oc2ccc(Br)cc2c1-c1cnn(-c2ccccc2)c1", "SK-MEL-2", "GI50", "> 100 µM (inactive)"],
  ["Cc1ncc([N+](=O)[O-])n1CCNC(=O)CCCn1cnc([N+](=O)[O-])n1", "SK-MEL-2", "GI50", "> 90.8 µM (inactive)"],
  ["C[C@H](C(=O)N1C(=O)O[C@@H](c2ccccc2)[C@H]1C)[C@H](c1ccccc1)N(Cc1ccccc1)OC(=O)c1ccccc1", "SK-MEL-2", "GI50", "22.1 µM (inactive)"],
  ["COc1ccc(CCN2COc3ccc4ccc(=O)oc4c3C2)cc1OC", "SK-MEL-2", "GI50", "> 100 µM (inactive)"],
  ["CCCCCCCCCCCCCC(=O)OC(/C=C/C(C)C)C(O)C(O)C(OC)C(=O)NC1CCCCNC1=O (centres undefined)", "SK-MEL-2", "GI50", "2.65 µM (inactive)"],
  ["Brc1ccc(CCNCCN2CCCCC2)cc1", "SK-MEL-2", "GI50", "19.4 µM (inactive)"],
  ["COC(=O)C(=O)C(C#N)c1c(Cl)cccc1Cl (centres undefined)", "SK-MEL-2", "GI50", "> 100 µM (inactive)"],
  ["CSc1nc(SC)c2c(C(N)=S)n[nH]c2n1", "SK-MEL-2", "GI50", "24 µM (inactive)"],
  ["COC(=O)C1C=CCON2CCc3c(n(C)c4ccccc34)C12 (centres undefined)", "SK-MEL-2", "GI50", "> 100 µM (inactive)"],
  ["c1ccc(C2(c3ccccc3)S/C(=C3/SC(c4ccccc4)(c4ccccc4)c4ccccc43)c3ccccc32)cc1", "SK-MEL-2", "GI50", "> 100 µM (inactive)"],
  ["COc1ccccc1[C@@H]1CCC2CC[C@@H](c3ccccc3OC)[N+]21Cc1ccccc1 (some centres undefined)", "SK-MEL-2", "GI50", "1.51 µM (inactive)"],
  ["NC(=S)N/N=C/c1ncccc1N [TRIAPINE]", "SK-MEL-2", "GI50", "> 10 µM (inactive)"],
  ["COc1ccc2c(c1)OCCCN(C)OC2c1ccccc1 (centres undefined)", "SK-MEL-2", "GI50", "> 100 µM (inactive)"],
  ["Cc1ccccc1NC(=O)c1cc2cc(/N=N/c3ccccc3C(=O)O)ccc2oc1=O", "SK-MEL-2", "GI50", "22.8 µM (inactive)"]
]}
